read-out: solute carrier (SLC22A1), SLC22A1 (gene 6580); test: LTEA_HepaRG_SLC22A1: Life Technologies and Expression Analysis (LTEA) Assay for solute carrier (SLC22A1) using HepaRG (AID 2283524); conditions: mRNA level, 48 h; actives raise or lower the signal;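 for AC50: differentiated human HepaRG liver cells in serum-free induction medium; TaqMan qRT-PCR normalized to ACTB GAPDH and POLR2A housekeeping genes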
Calls of active or inactive are those of the source. Rule for the calls: active = hit-call score of the fitted dose curve at least 0.9, where 1 is the maximum; inactive = score below 0.9.
PROPERTY NAME: AC50

The following compounds have reported results that may help.
Endpoint output: AC50 of Cc1ccccc1N . Value? inactive

Now the same for O=c1[nH]c(=O)[nH]c(=O)[nH]1 inactive

Now the same for O=C1C2(Cl)C3(Cl)C4(Cl)C(Cl)(Cl)C5(Cl)C3(Cl)C1(Cl)C5(Cl)C24Cl (stereo unspecified) 19.3 µM (active)

Now the same for CCCCCCCCc1ccc(O)cc1 inactive

Now the same for C[C@@H]1C[C@@H]([C@H](O)CC2CC(=O)NC(=O)C2)C(=O)[C@@H](C)C1 8.29 µM (active)

New cases:
Endpoint output: AC50 of NC(=O)O . Value? inactive
